- Tested on: HCC-2998 colon
- Assay Name: NCI-60 one-dose screen, 48 h (100 = growth as untreated, 0 = no growth, -100 = all killed)
- Applied Conditions: 10 µM unless noted
This is part of a sample that, as a whole, favours compounds with a hit. Of some 83,000 tested, about 20% had one in any assay.
Each entry below carries its recorded growth.
Report as a plain number; the unit % is understood.

Sample answers from the record:
| Query Smiles | Measured Property | Quantity Unit | Observed Result |
| --- | --- | --- | --- |
| O=C(CSc1nnc(-c2ccc(NC(=O)c3cccnc3)cc2)o1)N[C@@H](Cc1ccc(O)cc1)C(=O)O | growth | % | 108 |
| Cc1nc2ccccc2c(/C=C/c2ccc(Cl)cc2)c1C(=O)/C=C/c1ccc(F)cc1 | growth | % | -67.3 |
| C=C(C)[C@@H]1CC=C2c3sc(-c4ccc(C)cc4)nc3C[C@@H](C)[C@]2(C)C1 | growth | % | 115 |

Let's switch to this molecule now.
Asked: Entry under review: Cc1cc[c-]cc1.Fc1c[c-]c(-c2ccccn2)c(F)c1.[Pt+2].c1ccc(P(C[PH+](c2ccccc2)c2ccccc2)c2ccccc2)cc1 . Reported growth?
Given back: 33.1
